Taken from patent US10981926B2.

# System: rGABA-gated Cl− channel
# test.summary: GABA-Gated Cl Channel Antagonist Radioligand Binding Assay
# Set-up: species or system rat
# test.conditions: 10 μM single point, [35S]-TBPS, cerebral cortex membrane homogenates
measurement.kind: rGABA-gated Cl− channel % inh @10 μM (%)

Below, 5 compounds whose answers are already recorded.
{"compound": "N#Cc1ncc(N2C(=O)C3(CCC3)N(c3ccc(OC4CCN(CCO)CC4)cc3)C2=S)cc1Cl", "measurement.unit": "%", "numeric.readout": 13.2}
{"compound": "N#Cc1ncc(N2C(=O)C3(CCC3)N(c3ccc4nn(CCO)cc4c3)C2=S)cc1Cl", "measurement.unit": "%", "numeric.readout": 48.5}
{"compound": "COc1cc(N2C(=O)C3(CCC3)N(c3ccc4c(cnn4C4CCN(CCO)CC4)c3)C2=S)cnc1C#N", "measurement.unit": "%", "numeric.readout": 18.6}
{"compound": "N#Cc1ncc(N2C(=O)C3(CCC3)N(c3ccc(N4CCOCC4)cc3)C2=S)cc1C(F)(F)F", "measurement.unit": "%", "numeric.readout": 77.5}
{"compound": "Cc1cc(N2C(=O)C3(CCC3)N(c3ccc(OC4CCN(C5CC5)CC4)cc3)C2=S)cnc1C#N", "measurement.unit": "%", "numeric.readout": 49.9}

P: CNC1CCC(Oc2ccc(N3C(=S)N(c4cnc(C#N)c(C(F)(F)F)c4)C(=O)C34CCC4)cc2)CC1 (centres unmarked)
Q: N#Cc1ncc(N2C(=O)C3(CCC3)N(c3ccc(OC4CC5(CCN5)C4)cc3)C2=S)cc1C(F)(F)F (centres unmarked)
-- ask Form: Entry with minimum rGABA-gated Cl− channel % inh @10 μM (choose one): P / Q Give the chosen item's label as your response.
-- reply P
(P: 33.7%, Q: 77.3%)
